- test_protocol: Rat pharmacokinetics, intravenous and oral co-dosing of Compound 122 and atazanavir
- Type: in vivo
- condition_description: male, Sprague-Dawley, plasma, rats, intravenous co-dosing, 1 mg/kg of each
half-life by entry:
Write the figure, then the unit, nothing else.

Need half-life, item [2H]C([2H])([2H])OC(=O)N[C@H](C(=O)N[C@@H](Cc1ccccc1)[C@@H](O)CN(Cc1ccc(-c2ccccn2)cc1)NC(=O)[C@@H](NC(=O)OC([2H])([2H])[2H])C(C([2H])([2H])[2H])(C([2H])([2H])[2H])C([2H])([2H])[2H])C(C([2H])([2H])[2H])(C([2H])([2H])[2H])C([2H])([2H])[2H]
15 min

Need half-life, item COC(=O)N[C@H](C(=O)N[C@@H](Cc1ccccc1)[C@@H](O)CN(Cc1ccc(-c2ccccn2)cc1)NC(=O)[C@@H](NC(=O)OC)C(C)(C)C)C(C)(C)C [Atazanavir, atazanavir, reference compound]
13.8 min

###

- test_protocol: Chimp pharmacokinetics Run A, IV or PO co-dosing of atazanavir and Compounds 114, 120, 122
- Format: in vivo, chimpanzee
- condition_description: chimpanzee, in vivo, po, concentration detected intact in urine
test_readout: concentration at 24 h (ng/mL)
Your answer should be a plain number; it is taken to be in ng/mL.

- molecule: "COC(=O)N[C@H](C(=O)N[C@@H](Cc1ccccc1)[C@@H](O)CN(Cc1ccc(-c2ccccn2)cc1)NC(=O)[C@@H](NC(=O)OC)C(C)(C)C)C(C)(C)C [Atazanavir, atazanavir, reference compound]"
  concentration at 24 h / ng/mL: 569
- molecule: "[2H]C([2H])([2H])OC(=O)N[C@H](C(=O)N[C@@H](Cc1ccccc1)[C@@H](O)CN(Cc1ccc(-c2ccccn2)cc1)NC(=O)[C@@H](NC(=O)OC([2H])([2H])[2H])C(C([2H])([2H])[2H])(C([2H])([2H])[2H])C([2H])([2H])[2H])C(C([2H])([2H])[2H])(C([2H])([2H])[2H])C([2H])([2H])[2H]"
  concentration at 24 h / ng/mL: 1280
- molecule: "[2H]C([2H])([2H])OC(=O)N[C@H](C(=O)N[C@@H](Cc1ccccc1)[C@@H](O)CN(Cc1ccc(-c2ccccn2)cc1)NC(=O)[C@@H](NC(=O)OC)C(C)(C)C)C(C([2H])([2H])[2H])(C([2H])([2H])[2H])C([2H])([2H])[2H]"
  concentration at 24 h / ng/mL: 1070

Need concentration at 24 h, item [2H]C([2H])([2H])OC(=O)N[C@H](C(=O)NN(Cc1ccc(-c2ccccn2)cc1)C[C@H](O)[C@H](Cc1ccccc1)NC(=O)[C@@H](NC(=O)OC([2H])([2H])[2H])C(C([2H])([2H])[2H])(C([2H])([2H])[2H])C([2H])([2H])[2H])C(C)(C)C
1230

###

- test_protocol: Microsomal assay: stability in human liver microsomes
- Type: in vitro ADME
- condition_description: human, liver microsomes, pH 7.4, human liver microsomes, repeated assay (Table 3); read-out: t1/2 (min) Avg ± SD (n = 3)
test_readout: half-life at 1 μM (min)
Your answer should be a plain number; it is taken to be in min.

- compound: "[2H]C([2H])([2H])OC(=O)N[C@H](C(=O)N[C@@H](Cc1ccccc1)[C@@H](O)CN(Cc1ccc(-c2ccccn2)cc1)NC(=O)[C@@H](NC(=O)OC([2H])([2H])[2H])C(C([2H])([2H])[2H])(C([2H])([2H])[2H])C([2H])([2H])[2H])C(C)(C)C [Compound 121]"
  half-life at 1 μM [min]: 18.8

Need half-life at 1 μM, item [2H]C([2H])([2H])OC(=O)N[C@H](C(=O)N[C@@H](Cc1ccccc1)[C@@H](O)CN(NC(=O)[C@@H](NC(=O)OC)C(C)(C)C)C([2H])([2H])c1ccc(-c2ccccn2)cc1)C(C([2H])([2H])[2H])(C([2H])([2H])[2H])C([2H])([2H])[2H] [Compound 123]
23.9

Need half-life at 1 μM, item [2H]C([2H])([2H])C([C@H](NC(=O)OC)C(=O)N[C@@H](Cc1ccccc1)[C@@H](O)CN(Cc1ccc(-c2ccccn2)cc1)NC(=O)[C@@H](NC(=O)OC)C(C([2H])([2H])[2H])(C([2H])([2H])[2H])C([2H])([2H])[2H])(C([2H])([2H])[2H])C([2H])([2H])[2H] [Compound 106]
25.6

The values you see were collected from patent US8258309B2.
